Quick list: GR50 GALAP per entry.
tested on: GALAP: cleavers (Galium aparine); test: Post-emergent Test III, herbicidal activity in wheat and barley; assay type: in vivo; settings: Table 8; dose for 50 percent growth reduction, probit analysis; 21 d
Lab book: enter the figure in g ai/ha, no units written.

COMPOUND STRUCTURE	GR50 GALAP / g ai/ha
COc1c(N)nc(-c2ccc(I)c(F)c2)nc1C(=O)O	14

Problem: Reported GR50 GALAP, molecule `COC(=O)c1nc(-c2ccc(I)c(F)c2)c(C)c(N)c1Cl` : ____
Solution: 4

Problem: Reported GR50 GALAP, molecule `COC(=O)c1nc(-c2ccc(I)c(F)c2)nc(N)c1OC` : ____
Solution: 5

Problem: Reported GR50 GALAP, molecule `COc1c(N)nc(-c2ccc(Br)c(F)c2)nc1C(=O)O` : ____
Solution: 5

Problem: Reported GR50 GALAP, molecule `Nc1c(Cl)c(C(=O)O)nc(-c2ccc(Br)c(F)c2)c1Cl` : ____
Solution: 2

Problem: Reported GR50 GALAP, molecule `COC(=O)c1nc(-c2ccc(C#N)c(F)c2)c(F)c(N)c1Cl` : ____
Solution: 12

====

Quick list: pest or weed control at 35 g/ha per entry.
test system: MATSS: scented mayweed (Matricaria chamomilla), pineappleweed (Matricaria matricarioides); experiment: Post-emergent Test III, herbicidal activity in wheat and barley; type: in vivo; conditions: Matricaria chamomilla, post-emergence, 504 h; 35 g ai/ha; 21 days after application; read-out: Visual Gorowth Reduction (%) 21 days After Application MATSS

Known pest or weed control at 35 g/ha results, listed for orientation:
COMPOUND	pest or weed control at 35 g/ha
COC(=O)c1nc(-c2ccc(I)c(F)c2F)c(F)c(N)c1Cl [Compound 99]	30 to 44%
Nc1c(F)c(-c2cc(F)c(I)cc2F)nc(C(=O)O)c1Cl [Compound 69]	75 to 84%
Nc1c(F)c(-c2ccc(I)c(F)c2F)nc(C(=O)O)c1Cl [Compound 141]	75 to 84%
COC(=O)c1nc(-c2ccc(Br)c(F)c2)c(F)c(N)c1Cl [Compound 49]	60 to 74%

Next up:
Problem: Form field: pest or weed control at 35 g/ha recorded for COc1c(N)nc(-c2ccc(Br)c(F)c2F)nc1C(=O)O [Compound 8] with MATSS: scented mayweed (Matricaria chamomilla), pineappleweed (Matricaria matricarioides) (enter value)
Solution: 60 to 74%

====

test system: Key Grass and Sedge Weeds as well as Grass Crops; assay: Post-emergent Test II herbicidal activity (Table 6); assay type: in vivo; settings: Triticum aestivum, post-emergence, 336 h, TRZSS (wheat), application rate 70 g ai/ha, read-out: Visual Growth Reduction (%) 14 Days After Application, TRZSS
Quick list: pest or weed control at 70 g/ha per entry.

Known pest or weed control at 70 g/ha results, listed for orientation:
COMPOUND STRUCTURE	pest or weed control at 70 g/ha
Nc1c(F)c(-c2ccc(OC(F)F)c(F)c2)nc(C(=O)O)c1Cl	30 to 44%
COC(=O)c1nc(-c2cc(F)ccc2F)c(F)c(N)c1Cl	0 to 29%
COC(=O)c1nc(-c2ccc(I)cc2)c(C)c(N)c1Cl	45 to 59%
Cc1c(-c2ccc(OC(F)F)cc2)nc(C(=O)O)c(Cl)c1N	0 to 29%

Problem: Reported pest or weed control at 70 g/ha, molecule `COC(=O)c1nc(-c2ccc(Br)c(F)c2)c(Cl)c(N)c1Cl` : ____
Solution: 60 to 74%

Problem: Reported pest or weed control at 70 g/ha, molecule `C#Cc1ccc(-c2nc(C(=O)OC)c(C=C)c(N)c2F)cc1` : ____
Solution: 0 to 29%

Problem: Reported pest or weed control at 70 g/ha, molecule `C#Cc1ccc(-c2nc(C(=O)O)c(C=C)c(N)c2F)cc1` : ____
Solution: 45 to 59%

Problem: Reported pest or weed control at 70 g/ha, molecule `C=Cc1c(C(=O)O)nc(-c2ccc(Br)cc2)c(F)c1N` : ____
Solution: 0 to 29%

Problem: Reported pest or weed control at 70 g/ha, molecule `Nc1c(F)c(-c2ccc(OC(F)F)cc2F)nc(C(=O)O)c1Cl` : ____
Solution: 0 to 29%

====

Quick list: pest or weed control at 140 g/ha per entry.
Tested on: Key Broadleaf Weed and Crop Species
Test: Post-emergent Test II herbicidal activity (Table 5)
Type: in vivo
Settings: post-emergence, 336 h; ABUTH: velvetleaf (Abutilon theophrasti); 140 g ai/ha; post-emergent; 14 days after application; read-out: Visual Growth Reduction (%) 14 Days After Application ABUTH
Source text: Post-emergent Test II: Seeds or nutlets of the desired test plant species were planted in Sun Gro Metro-Mix® 360 planting mixture, which typically has a pH of 6.0 to 6.8 and an organic matter content of about 30 percent, in plastic pots with a surface area of 64 square centimeters. When required to ensure good germination and healthy plants, a fungicide treatment and/or other chemical or physical treatment was applied. […]

Problem: Reported pest or weed control at 140 g/ha, molecule `COC(=O)c1nc(-c2ccc(I)c(F)c2)cc(N)c1Cl` : ____
Solution: 85 to 94%

Problem: Reported pest or weed control at 140 g/ha, molecule `COC(=O)c1nc(-c2cc(F)c(C(F)F)cc2F)nc(N)c1OC` : ____
Solution: 75 to 84%

Problem: Reported pest or weed control at 140 g/ha, molecule `C#Cc1ccc(-c2nc(C(=O)O)c(Cl)c(N)c2Cl)cc1` : ____
Solution: 95 to 100%

Problem: Reported pest or weed control at 140 g/ha, molecule `C=Cc1c(C(=O)O)nc(-c2ccc(C(F)(F)F)c(F)c2)c(F)c1N` : ____
Solution: 95 to 100%

Problem: Reported pest or weed control at 140 g/ha, molecule `COC(=O)c1nc(-c2ccc(Br)cc2)c(C)c(N)c1Cl` : ____
Solution: 95 to 100%

Problem: Reported pest or weed control at 140 g/ha, molecule `COC(=O)c1nc(-c2cc(F)c(OC(F)F)cc2F)cc(N)c1Cl` : ____
Solution: 85 to 94%

Problem: Reported pest or weed control at 140 g/ha, molecule `Nc1cc(-c2c(F)cc(I)c(F)c2F)nc(C(=O)O)c1Cl` : ____
Solution: 85 to 94%

Problem: Reported pest or weed control at 140 g/ha, molecule `COC(=O)c1nc(-c2ccc(Br)c(F)c2)cc(N)c1Cl` : ____
Solution: 85 to 94%

Problem: Reported pest or weed control at 140 g/ha, molecule `COC(=O)c1nc(-c2ccc(C#N)cc2)c(Cl)c(N)c1Cl` : ____
Solution: 60 to 74%

====

system: VIOSS: wild pansy (Viola tricolor), field violet (Viola arvensis); assay: Post-emergent Test III, herbicidal activity in wheat and barley; assay type: in vivo; settings: probit analysis; dose for 50 percent growth reduction; 21 days after application
MEASURED METRIC: GR50 VIOSS
Please state the number and follow it with the unit.

Problem: Reported GR50 VIOSS, compound `COc1c(N)nc(-c2ccc(Br)c(F)c2F)nc1C(=O)O` : ____
Solution: 13 g ai/ha

====

tested on: Key Grass and Sedge Weeds as well as Grass Crops; assay: Post-emergent Test II herbicidal activity (Table 6); assay type: in vivo; settings: post-emergence, 336 h, ZEAMX: maize, corn (Zea mays), crop, 140 g ai/ha, read-out: Visual Growth Reduction (%) 14 Days After Application, ZEAMX
MEASURED METRIC: pest or weed control at 140 g/ha

COMPOUND STRUCTURE	pest or weed control at 140 g/ha
COC(=O)c1nc(-c2ccc(I)cc2F)c(F)c(N)c1Cl	0 to 29%
C#Cc1ccc(-c2nc(C(=O)O)c(Cl)c(N)c2F)c(F)c1F	95 to 100%
Nc1c(F)c(-c2ccc(I)cc2F)nc(C(=O)O)c1Cl	95 to 100%

Next up:
Problem: Reported pest or weed control at 140 g/ha, compound `COC(=O)c1ccc(-c2nc(C(=O)OC)c(Cl)c(N)c2F)cc1` : ____
Solution: 0 to 29%

====

test system: BROTE: downy brome (Bromus tectorum); experiment: Post-emergent Test III, herbicidal activity in wheat and barley; assay type: in vivo; details: Bromus tectorum, post-emergence, 504 h; 70 g ai/ha; read-out: Visual Growth Reduction (%) 21 Days After Application BROTE
Quick list: pest or weed control at 70 g/ha per entry.

MOLECULE	RESULT
Nc1c(F)c(-c2ccc(Cl)c(F)c2)nc(C(=O)O)c1Cl [Compound 217]	85 to 94%
COC(=O)c1nc(-c2ccc(C#N)cc2)c(F)c(N)c1Cl [Compound 142]	0 to 29%
COC(=O)c1nc(-c2ccc(Cl)c(F)c2)c(F)c(N)c1Cl [Compound 216]	45 to 59%
Nc1cc(-c2ccc(Br)c(F)c2F)nc(C(=O)O)c1Cl [Compound 91]	45 to 59%

Next up:
Problem: Reported pest or weed control at 70 g/ha, molecule COC(=O)c1nc(-c2ccc(Br)c(F)c2F)cc(N)c1Cl [Compound 114] : ____
Solution: 0 to 29%
